Assay: basal RPMI8226 mitochondrial membrane potential changes, profiling panel, cell-based, JC-1 fluorescence, 24 h, 100 nL compound (AID 1169); note: test concentration not given here
Details: RPMI8226 myeloma, JC-1 mitochondrial potential fluorescence, higher = more signal
Measured z-score accompanies every entry in the list below.
Lab note: record the figure alone, no unit after it.

Illustrative cases are given below, each with its answer.
# compound, observed.property, result.number
records = [
    ("COc1ccc(CCNC(=O)[C@@]2(c3ccc([N+](=O)[O-])cc3)CC(=O)N(C3CCCCC3)[C@@H]2c2ccc(CO)cc2I)cc1", "z-score", -0.293),
    ("C=C(/C=C\\CNS(=O)(=O)c1ccc(C)cc1)[C@H](O)[C@H]1CCCN1S(=O)(=O)c1ccccc1[N+](=O)[O-]", "z-score", -0.938),
    ("COCCCNC(=O)[C@@]1(Cc2ccccc2I)c2ccccc2C(=O)N(C2CCCCC2)[C@H]1c1ccc(CO)cc1", "z-score", -0.794),
    ("COCCCNC(=O)[C@]1(Cc2ccccc2N=[N+]=[N-])N=C(c2ccc(OCCCO)cc2)O[C@@H]1c1ccccc1", "z-score", -1.27),
    ("CC(C)N1C(=O)[C@@]2(Cc3ccccc31)c1ccccc1C(=O)N(Cc1ccccc1)[C@H]2c1ccc(CO)cc1", "z-score", 0.122),
]

So, COc1ccc([Si](C)(C)[C@H]2[C@H](CC(=O)N3CCC[C@H]3CO)O[C@@]3(C(=O)N(Cc4cccc(N5CCCCC5=O)c4)c4ccccc43)[C@@H]2C)cc1 ? Its z-score was -0.893

So, CCCCC=C[C@@H](NC(=O)C(C)(C)C)c1ccccc1 ? Its z-score was -0.895

So, COC(=O)[C@@]1(Cc2ccc(OC)cc2)[C@@H]2[C@@H](CC(=O)[C@H]2CC(=O)C(=O)N(C)C)CN1C(=O)c1ccccc1 ? Its z-score was -0.735

So, C[C@]1(C(=O)NCC(F)(F)F)c2ccccc2C(=O)N(Cc2cc(C(F)(F)F)cc(C(F)(F)F)c2)[C@H]1c1ccc(CO)cc1 ? Its z-score was 0.412

So, COc1c(C)cc(-c2nc(-c3ccccc3)c3c(c2C)CO[Si]3(C(C)C)C(C)C)cc1C ? Its z-score was 0.379

So, COCCOC(=O)N1C(=O)[C@@]2(c3cc(C#CCNC(N)=O)ccc31)[C@H](c1ccc(O)cc1)N1[C@H](c3ccccc3)[C@H](c3ccccc3)OC(=O)[C@H]1[C@@H]2C(=O)N1CCc2cc(OC)c(OC)cc2C1 ? Its z-score was 0.0593

So, [N-]=[N+]=Nc1ccccc1C[C@@]1(C(=O)NCC(O)CO)N=C(c2ccc(OCCCO)cc2)O[C@@H]1c1ccccc1N=[N+]=[N-] (stereo partly drawn) ? Its z-score was -1.21

So, COCCOC(=O)N1C(=O)[C@@]2(c3cc(C#CC4=CCCCC4)ccc31)[C@H](C(=O)N1CCCCCCC1)[C@H]1C(=O)O[C@H](c3ccccc3)[C@H](c3ccccc3)N1[C@@H]2c1ccccc1OCCO ? Its z-score was -0.966

So, C=CCC(OC(C)=O)[C@@H]1[C@@H](N(Cc2cccc3ccccc23)C(=O)c2ccc(C)cc2)c2cc(OCCCO)ccc2N1C(=O)Cc1ccc2ccccc2c1 (stereo partly drawn) ? Its z-score was 0.152

So, C=CC[C@H](OC(=O)Nc1ccc(SC)cc1)c1ccc(O)c(F)c1 ? Its z-score was -0.325

So, C=CCOC(=O)[C@@H]1[C@H]2C(=O)O[C@H](c3ccccc3)[C@H](c3ccccc3)N2[C@H](c2ccc(OCCOC(=O)[C@H]3C[C@H]4C(=O)N[C@@H](CCCCN(C)C)C(=O)N4[C@H]3c3cccc(OCCO)c3)cc2)[C@@]12C(=O)Nc1ccccc12 ? Its z-score was -0.928

So, CC1CC/C=C\[C@H]2OC34C=CCN(C(C)C)C(=O)[C@H]3N(C(C)CO)C(=O)[C@@H]4C2C(=O)O1 (stereo partly drawn) ? Its z-score was 0.851

So, COc1ccc(C(O)C2C=CC3C(=O)N(C)C(=O)C3N2Nc2ccccc2)cc1 (stereo not drawn) ? Its z-score was -0.176
